test: gradient 5% acetonitrile 3 min, to 50% in 2 min, to 85% in 15 min, held 3 min, 100 µL/min; conditions: column: Zorbax Extend-C18 2.1 x 50 mm; eluents: water / acetonitrile, 0.1% formic acid
Mark Criterion met for reported RP-LC retention time of 700 s or greater; mark Criterion not met for anything smaller.

Is RP-LC retention time at least 700 s? Consider COc1cc(NC(=O)NCCc2c(C)nn(C)c2C)cc(OC)c1OC
Criterion not met

Is RP-LC retention time at least 700 s? Consider COc1ccc(-c2nc(C)cc(C)c2CNS(=O)(=O)c2cccc(C#N)c2)cc1
Criterion not met

Is RP-LC retention time at least 700 s? Consider CCN1CCCC(OC(=O)C(c2ccccc2)c2ccccc2)C1 (centres undefined)
Criterion met

Is RP-LC retention time at least 700 s? Consider Cc1cc(C(=O)Nc2ccc(-c3nc4ccccc4o3)cc2)no1
Criterion met

Is RP-LC retention time at least 700 s? Consider COc1ccc(CNC(=S)Nc2ccc3nc(N4CCN(C)CC4)cc(C)c3c2)c(OC)c1
Criterion not met

Is RP-LC retention time at least 700 s? Consider O=C(Nc1cccc(F)c1)C1CCN(C(=O)c2ncn3c2COC(c2ccccc2)C3)CC1 (centres undefined)
Criterion met

Is RP-LC retention time at least 700 s? Consider CCOc1ccccc1NC(=O)N1CC(n2cnnc2-c2ccccc2)C1
Criterion met

Is RP-LC retention time at least 700 s? Consider CC(C)NC(=O)c1ccc(OCC2CCCN(C(=O)c3ccc(F)cc3F)C2)cc1 (centres undefined)
Criterion met

====

assay: gradient 5% acetonitrile 3 min, to 50% in 2 min, to 85% in 15 min, held 3 min, 100 µL/min; settings: column: Zorbax Extend-C18 2.1 x 50 mm; eluents: water / acetonitrile, 0.1% formic acid
Endpoint Label: RP-LC retention time
Phrase the answer as number then unit, nothing more needed.

// fetch RP-LC retention time given entry CCSc1nc2ccc(NS(=O)(=O)c3ccccc3F)cc2s1
964 s

// fetch RP-LC retention time given entry O=C(C1=CN(c2ccc3c(c2)OCO3)c2cc(Cl)ccc2S1(=O)=O)N1CCCC1
847 s

// fetch RP-LC retention time given entry O=C(Cc1coc2ccc3ccccc3c12)NCc1ccco1
818 s

// fetch RP-LC retention time given entry O=C(NC1CCN(c2cc(-c3ccc(Cl)cc3)[nH]n2)C1)c1ccccc1Br (stereo not given)
787 s

// fetch RP-LC retention time given entry Cc1nn(-c2ccc(C(=O)N3CCN(C)CC3)cc2)c2c1C(=O)CC(C)(C)C2
593 s

// fetch RP-LC retention time given entry Cc1ccnc(NC(=O)c2ccc(Cn3cncn3)cc2)c1
593 s

// fetch RP-LC retention time given entry O=C(NCc1ccco1)Nc1ccc2c(c1)N(C(=O)c1ccccc1)CC2
756 s

// fetch RP-LC retention time given entry Cc1ccccc1NC(=O)c1nc2ccccc2[nH]c1=O
735 s

// fetch RP-LC retention time given entry CC(C)N1CCC(OCCCNC(=O)CN2CCCc3nc(C4CC4)ncc3C2=O)CC1
576 s

// fetch RP-LC retention time given entry Cc1oc2ccn(Cc3cccc(F)c3)c(=O)c2c1C(=O)NCC1CCCO1 (stereo not given)
891 s

====

assay: gradient 5% acetonitrile 3 min, to 50% in 2 min, to 85% in 15 min, held 3 min, 100 µL/min; settings: column: Zorbax Extend-C18 2.1 x 50 mm; eluents: water / acetonitrile, 0.1% formic acid
Under this convention, Met denotes RP-LC retention time strictly below 700 s and Not met denotes RP-LC retention time at or above 700 s.

hey, is RP-LC retention time for CCCn1c(=O)sc2cc(S(=O)(=O)N3CCC(C(=O)NC(C)C)CC3)ccc21 lower than 700 s or not?
Not met

hey, is RP-LC retention time for CCn1cc(-c2ccc(F)cc2)cc1C(=O)NC1CC1 lower than 700 s or not?
Not met

hey, is RP-LC retention time for CCCNC(=O)C1CCCN(c2ccc(SCC(=O)Nc3c(C)cccc3C)nn2)C1 (stereo not given) lower than 700 s or not?
Met

hey, is RP-LC retention time for CCC(=O)N1CCc2cc(N3CC(C(=O)N4CCCN(C)CC4)CC3=O)ccc21 (stereo not given) lower than 700 s or not?
Met

hey, is RP-LC retention time for CCOC(=O)c1c(C)oc2nc(C)nc(N(C)Cc3ccccc3)c12 lower than 700 s or not?
Not met

Cited source for all entries: the METLIN SMRT retention time set (Domingo-Almenara et al. 2019)
